# EXPERIMENTAL TARGET: T1, PD-1 on 293T-PD-1 cells (UniProt Q15116 25-288, limits assumed)
# T1 construct: whole, on cells; the antibodies are anti-human PD-1
# T1 sequence (Q15116 25-288 limits assumed): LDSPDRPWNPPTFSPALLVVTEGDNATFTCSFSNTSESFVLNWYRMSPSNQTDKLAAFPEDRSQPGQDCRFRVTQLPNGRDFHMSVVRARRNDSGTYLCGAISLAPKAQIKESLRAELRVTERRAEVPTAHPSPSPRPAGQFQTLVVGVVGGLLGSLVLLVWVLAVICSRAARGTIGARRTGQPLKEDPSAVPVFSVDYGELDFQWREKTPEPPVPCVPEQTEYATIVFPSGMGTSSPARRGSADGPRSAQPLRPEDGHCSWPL
# PROCEDURE DETAILS: competition FACS on 293T-PD-1 cells, competitor PD-L1-biotin (row head prints EC50, title IC50)

BINDER	IC50 / µg/mL
10A10 (antibody, V domains shown, Mouse monoclonal antibody purified from hybridoma supernatant by Protein A; also called 鼠源PD-1单克隆抗体10A10; PD-1杂交瘤抗体10A10) VH: EVKLVESGGDLVKPGGSLKLSCAASGFTFNYYDISWVRQTPEKRLEWVATISGGGRYTYYLDNVQGRFTISRDNAKNILYLQMNSLRSDDTALYFCASPYEGAMDYWGQGTSVTVSS VL: DIVMTQSHKFMSTSIGDGVNITCKASQDVGTAVAWYQQKPGQSPKLLNKWASTRHTGVPDRFTGSGSGTDFTLTINNVQSEDLADYFCQQYSTFPYTFGGGTNLELK	0.0276
4B5 (antibody, V domains shown, Mouse monoclonal antibody purified from hybridoma supernatant by Protein A; also called 鼠源PD-1单克隆抗体4B5; PD-1杂交瘤抗体4B5) VH: EVILVESGGDLVKPGGSLKLSCAASGFTFSSYMMSWVRQTPEKRLEWVATISGGGANTYYLDSMKGRFTISRDNAKNILYLQMSSLRSEDTAFYYCARQSDRGFPYWGQGTLVTVSA VL: DIQMTQSPASQSASLGESVTITCLASQPIGTWLAWYQQKPGTSPQLLIFAATTLTDGVPSRFSGSGSGTKFSFKISSLQAEDFVSYYCQQFSSIPYTFGGGTRLEIK	0.0355
8D4 (antibody, V domains shown, Mouse monoclonal antibody purified from hybridoma supernatant by Protein A; also called 鼠源PD-1单克隆抗体8D4; PD-1杂交瘤抗体8D4) VH: EVQLQQSGTVLARPGASVKMSCKTSGYTFTNFWMHWVKQRPGQGLDWIGAIFPGNTDTTYNRKFKDKAKLTAVTSASTAYMELSSLTNEDSAVYYCTRNHYGLDYWGQGTSVTVSS VL: DIVLTQSPASLAVSLGQRATISCRASESVSIHGTHLMHWYQQKPGQPPKLLIYIASNLGSGVPARFSGSGSETDFTLNIHPVEEEDAATYFCQQSIEDPWTFGGGTKLEIK	0.0296
5F7 (antibody, V domains shown, Mouse monoclonal antibody purified from hybridoma supernatant by Protein A; also called 鼠源PD-1单克隆抗体5F7; PD-1杂交瘤抗体5F7) VH: EVMLVESGGDLVKPGGSLKLSCAASGFTFSSYMMSWVRQTPEKRLEWVAAISGGGGDTYYPDSVKGRFTISRDNAKNTLYLQMSSLRSEDTALYYCARRVVYAMDCWGQGTSVTVSS VL: DIQMTQSPASQSASLGESVTITCLASQSIGTWLVWYQQKPGKSPQLLISAATSLADGVPSRFSGSGSGTKFSFKISSLQAEDFVSYYCQQLYIIPWTFGGGTKLEIK	0.0181
5H10 (antibody, V domains shown, Mouse monoclonal antibody purified from hybridoma supernatant by Protein A; also called 鼠源PD-1单克隆抗体5H10; PD-1杂交瘤抗体5H10) VH: EVQLVESGGGLVKPGGSLKLSCAASGFTFSDYGMHWVRQAPEKGLEWVAYISGDSNTIYYADTVKGRFTISRDNAKNTLFLQMTSLRSEDTAMYYCTKRGPYYGYTHYFDYWGQGTTLTVSS VL: SIVMTQTPKFLLVSAGDRVTMTCKASQSVSNDVVWYQQKPGQSPKLLIYYASKRYTGVPDRFTGNGYGTDFTFTISTVQAEDLAVYFCQQDYSSPWTFGGGTKLEIK	0.0412
9H8 (antibody, V domains shown, Mouse monoclonal antibody purified from hybridoma supernatant by Protein A; also called 鼠源PD-1单克隆抗体9H8; PD-1杂交瘤抗体9H8) VH: EVKLVESGGGLVQPGGSLKLSCATSGFTFSDYYMYWVRQTPEKRLEWVAQISNGGGNTYYPDTVKGRFTISRDNAKNTLYLQMSRLKSEDTAIYYCSKSYYKYDGWYFDVWGAGTTVTVSS VL: DIVLTQSPASLAVSLGQRATISCRASESVEYSRTSLIQWYQLKPGQPPKLLIYAASYVESGVPDRFSGSGSGTEFSFNIHPVEEDDIAMYFCQQARKVPWTFGGGTNLEIK	0.00854

Sourced from patent CN114316047A
